pEC50: −log10 of the molar value. Residues, ends and D or L forms follow the SMILES beside them.
The following compounds have recorded pEC50 on LHRH binding sites on human ovarian cancer cells (EFO-27).
endpoint_name: pEC50

1. N=C(N)NCCC[C@H](NC(=O)[C@@H](Cc1ccc2ccccc2c1)NC(=O)CN1CCN(CC(=O)O)CCN(CC(=O)O)CCN(CC(=O)O)CC1)C(=O)N[C@@H](Cc1c[nH]c2ccccc12)C(=O)N[C@@H](CO)C(=O)N[C@@H](Cc1c[nH]cn1)C(=O)N[C@H](CCCNC(=N)N)C(=O)N[C@@H](Cc1c[nH]c2ccccc12)C(=O)N[C@@H](Cc1ccc(C(=O)c2ccccc2)cc1)C(=O)N1CCC[C@H]1C(=O)NCCO : 6.29
2. CN(CC(=O)N[C@@H](Cc1c[nH]cn1)C(=O)N[C@@H](Cc1c[nH]c2ccccc12)C(=O)N[C@@H](CO)C(=O)N[C@@H](Cc1c[nH]cn1)C(=O)N[C@H](CCCNC(=N)N)C(=O)N[C@@H](Cc1c[nH]c2ccccc12)C(=O)N[C@@H](CCCNC(=N)N)C(=O)N1CCC[C@H]1C(=O)NNC(N)=O)C(=O)CN1CCN(CC(=O)O)CCN(CC(=O)O)CCN(CC(=O)O)CC1 [BRU-2723] (HELM PEPTIDE1{[O=C(O)CN1CCN(CC(=O)O)CCN(CC(=O)[*:2])CCN(CC(=O)O)CC1].[Sar].H.W.S.H.[dR].W.R.P.[O=C(NN[*:1])[*:2]].[am]}$$$$V2.0) : 5.55
3. CNCC(=O)N[C@@H](CCCNC(=N)N)C(=O)N[C@@H](Cc1c[nH]c2ccccc12)C(=O)N[C@@H](CO)C(=O)N[C@@H](Cc1c[nH]cn1)C(=O)N[C@H](CCCNC(=N)N)C(=O)N[C@@H](Cc1c[nH]c2ccccc12)C(=O)N[C@@H](Cc1ccc(C(=O)c2ccccc2)cc1)C(=O)N1CCC[C@H]1C(=O)NCCCCNC(=O)CN1CCN(CC(=O)O)CCN(CC(=O)O)CCN(CC(=O)O)CC1 [compound 3041] : 6.44
4. CN(CC(=O)N[C@@H](Cc1c[nH]cn1)C(=O)N[C@@H](Cc1c[nH]c2ccccc12)C(=O)N[C@@H](CO)C(=O)N[C@@H](Cc1c[nH]cn1)C(=O)N[C@H](CCCNC(=N)N)C(=O)N[C@@H](Cc1c[nH]c2ccccc12)C(=O)N1CCC[C@H]1C(=O)NNC(N)=O)C(=O)CN1CCN(CC(=O)O)CCN(CC(=O)O)CCN(CC(=O)O)CC1 [BRU-2767] (HELM PEPTIDE1{[O=C(O)CN1CCN(CC(=O)O)CCN(CC(=O)[*:2])CCN(CC(=O)O)CC1].[Sar].H.W.S.H.[dR].W.P.[O=C(NN[*:1])[*:2]].[am]}$$$$V2.0) : 5.00
5. CN(NC(=O)[C@@H]1CCCN1C(=O)[C@H](Cc1ccc(C(=O)c2ccccc2)cc1)NC(=O)[C@H](Cc1c[nH]c2ccccc12)NC(=O)[C@@H](CCCNC(=N)N)NC(=O)[C@H](Cc1c[nH]cn1)NC(=O)[C@H](CO)NC(=O)[C@H](Cc1c[nH]c2ccccc12)NC(=O)[C@H](CCCNC(=N)N)NC(=O)[C@@H](Cc1ccc2ccccc2c1)NC(=O)CN1CCN(CC(=O)O)CCN(CC(=O)O)CCN(CC(=O)O)CC1)C(N)=O : 6.30

Origin of measurements: patent US20120045393A1
